Source: patent US11214803B2

# Tested on: Yap1 mRNA
# test_details: Dose-dependent inhibition of human Yap1 in SNU-449 cells (Example 9, RTS36584)
# Assay type: cell-based
# study_conditions: 2000.00 nM, free uptake, approximately 48 hours
Strand notation (5' to 3'): a small letter for the sugar, then the base; units joined by * are phosphorothioate-linked, units joined directly phosphodiester-linked; [ ] holds rarer units or linkages, { } end groups; capitals alone tell only the bases. e = 2'-O-(2-methoxyethyl) (MOE); k = constrained ethyl (cEt); [5mC] = 5-methylcytosine; d = 2'-deoxy (DNA); m = 2'-O-methyl
measured_parameter: % UTC (Yap1 mRNA) (% UTC)
Note: unit % UTC is implicit; provide only the numeric part.

# annotated cases, reported % UTC (Yap1 mRNA) shown
substance: 1200797 (kA*kT*kT*dA*dG*mA*dG*dT*dA*dT*dG*dT*dG*kG*k[5mC]*kA; antisense) [compound 1200797]
tgt: Yap1 mRNA
quantity_unit: % UTC
% UTC (Yap1 mRNA): 11
--
substance: 1198203 (kG*kG*dA*dA*dA*dT*dT*dG*dT*d[5mC]*dT*e[5mC]*eA*eT*kG*k[5mC]) [compound 1198203]
tgt: Yap1 mRNA
quantity_unit: % UTC
% UTC (Yap1 mRNA): 11
--
substance: 1200788 (kG*kA*kA*dA*dT*mU*dG*dT*d[5mC]*dT*d[5mC]*dA*dT*kG*k[5mC]*k[5mC]) [compound 1200788]
tgt: Yap1 mRNA
quantity_unit: % UTC
% UTC (Yap1 mRNA): 9

Challenge: Give % UTC (Yap1 mRNA) for the following substance: 1198528 (kT*kA*dA*dA*dG*dT*dG*dT*dA*dT*dG*eT*k[5mC]*eA*kG*eA; antisense) [compound 1198528]
Response given: 11

Challenge: Give % UTC (Yap1 mRNA) for the following substance: 1198499 (kT*kT*dT*dA*dG*dG*dA*dT*dG*d[5mC]*dA*eT*kG*eG*kT*eT) [compound 1198499]
Response given: 12

Challenge: Give % UTC (Yap1 mRNA) for the following substance: 1198935 (kG*kA*dT*dT*dT*dA*dG*dG*dA*dT*dG*k[5mC]*dA*kT*dG*kG; antisense) [compound 1198935]
Response given: 11

Challenge: Give % UTC (Yap1 mRNA) for the following substance: 1198211 (kA*kT*dT*dA*dG*dA*dG*dT*dA*dT*dG*eT*eG*eG*k[5mC]*kA) [compound 1198211]
Response given: 12

Challenge: Give % UTC (Yap1 mRNA) for the following substance: 1200857 (kA*kG*kT*dG*dT*mA*dT*dG*dT*d[5mC]*dA*dG*dA*kA*kG*kA; antisense) [compound 1200857]
Response given: 2
